# assaySummary: growth of efflux-deficient E. coli DRC39 – strain DRC39, OD650, 24 h, E. coli filamentation inducers, primary screen (AID 1178);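 also: growth measured as culture turbidity by optical density at 650 nm; test concentration not given here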
# conditionLabel: E. coli DRC39 acrAB, higher = more signal, called active from +8 up or from −8 down
Active and inactive are the calls of the source.
propertyName: z-score

molecule	z-score
O=C(NCC(O)CO)[C@@]1(Cc2ccccc2)COC(c2ccc(OCCCO)cc2)=N1 (stereo partly drawn)	0.187 (inactive)

Hey, can you go through the list below and give me z-score for every item?
1. O=C1O[C@H](c2ccccc2)[C@H](c2ccccc2)N2[C@H]1[C@@H](C(=O)NC[C@H](O)c1ccccc1)[C@]1(C(=O)Nc3ccc(C#CC4=CCCCC4)cc31)[C@H]2c1ccc(O)cc1
2. COCCOC(=O)N1C(=O)[C@@]2(c3cc(C#CC4=CCCCC4)ccc31)[C@H](C(=O)N1CCN(c3ncccn3)CC1)[C@H]1C(=O)O[C@H](c3ccccc3)[C@H](c3ccccc3)N1[C@@H]2c1ccc(OCCO)cc1

**A:**
["0.146 (inactive)", "0.208 (inactive)"]
